B1: library; numbered along this chain (parent)
chain: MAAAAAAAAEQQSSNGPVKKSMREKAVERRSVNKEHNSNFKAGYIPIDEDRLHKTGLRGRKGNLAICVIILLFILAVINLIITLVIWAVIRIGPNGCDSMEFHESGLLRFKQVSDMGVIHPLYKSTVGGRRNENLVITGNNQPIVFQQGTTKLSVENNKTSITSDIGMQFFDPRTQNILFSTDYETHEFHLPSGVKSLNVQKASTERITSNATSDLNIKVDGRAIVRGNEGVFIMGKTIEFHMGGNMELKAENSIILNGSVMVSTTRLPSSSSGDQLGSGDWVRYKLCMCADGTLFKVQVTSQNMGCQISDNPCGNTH

- Variants of: B1
- measurement description: SGCB cell-surface expression functional score (HA stain, bin4 vs bin1, normalised to synonymous) (log10 ratio); higher = more cell-surface SGCB (functional)
assay endpoint: SGCB cell-surface expression functional score (log10)
Keep the answer to the number alone.

mutation annotation	reported measurement
K61S	0.07
G306H	0.17
A88V	0.25
T175G	0.14
L57E	0.04

SGCB cell-surface expression functional score (log10) for F241V is -0.37
